From: ChEMBL document CHEMBL1201862

System: OVCAR-8
ASSAY REMARKS: NCI tumour cell line growth inhibition, 48 h
Active and inactive are the calls of the source. No stated cut-off is given here; in the data, active = GI50 up to about 1.1 µM and inactive = higher.
Your response should consist of one outcome taken from true = active, false = inactive

compound=CN(C)/C=N/c1c2c(nc3ccccc13)CCCC2 tested_on=OVCAR-8 group=false

Would you mind telling me which call this test gave CCN(CC)CCCC(C)Nc1ccnc(/C=C/c2ccc(Cl)cc2)c1 (stereo not given) ?
false

Also, Cc1c(N2C(=O)/C(=C/C=C/c3ccccc3)N=C2c2ccccc2)c(=O)n(-c2ccccc2)n1C please.
false

---

System: HT-29
ASSAY REMARKS: NCI tumour cell line growth inhibition, 48 h
Active and inactive are the calls of the source. No stated cut-off is given here; in the data, active = GI50 up to about 1.1 µM and inactive = higher.
Respond using exactly one of the listed classes: active, inactive

compound="CN(C)c1ccc(C2CC(c3ccc4ccccc4c3O)=NN2c2ccc([N+](=O)[O-])cc2[N+](=O)[O-])cc1 (stereo not given)" group=inactive
compound="COC1C(OC(=S)Nc2ccccc2)c2ccccc2N1C(C)=O (stereo not given)" group=inactive

Test call, this compound: Cc1c(N2C(=O)/C(=C/C=C/c3ccccc3)N=C2c2ccccc2)c(=O)n(-c2ccccc2)n1C
inactive

Next compound: COC(=O)C1Cc2c([nH]c3ccccc23)C(c2ccccc2O)N1 (stereo not given)
inactive

Please give the result for c1ccc2c3c(c(N4CCNCC4)nc2c1)CCCC3 too.
inactive

Entry O=c1c(Nc2ccccc2)cn(CCOc2ccccc2)c(=O)n1CCOc1ccccc1 please
inactive

Quick one: Cc1cc(OCc2nnc3n2N=C(c2cc(F)c(Cl)cc2Cl)/C(=C/c2ccc(Cl)cc2)S3)ccc1Cl
inactive

Same lookup for CCOP(=O)(OCC)C(Nc1cccc(F)c1)c1ccccc1 (stereo not given) , please.
inactive

Field entry: COC(=O)C1CCC(=O)N1CN(C(C)=O)c1ccccc1 (stereo not given)
inactive

Follow-up entry: C=CC1(C)CC(=O)C2(O)C(C)(O1)C(OC(C)=O)C(O)C1C(C)(C)CCC(O)C12C (stereo not given)
inactive

Proceed to O=C(CBr)c1ccc2cc(Br)c3ccccc3c2c1
inactive

Now this one: COC(=O)C1=C(C(=O)NNc2ccccc2)N(c2cccnc2Cl)C(c2ccccc2)=CC1c1ccccc1 (stereo not given)
inactive

Okay, and Cn1cc(C2NC(=O)c3ccccc3N2)c2ccccc21 (stereo not given) ?
active

Please give the result for C=CCNC1=NC(=O)C(CC(=O)Nc2ccc([N+](=O)[O-])cc2[N+](=O)[O-])S1 (stereo not given) too.
inactive

---

Test system: DLD-1
ASSAY REMARKS: NCI tumour cell line growth inhibition, 48 h
The source made the active and inactive calls. Cut-off read from the data, not from the text of the source: active = GI50 up to about 1.1 µM and inactive = higher.
MEASURED QUANTITY: GI50

Consider the worked cases shown below.
molecule=CCOC(=O)c1cnc2sc3ccc4ccccc4c3n2c1=O tested_on=DLD-1 measured_quantity=GI50 result="> 100 µM (inactive)"
molecule=CNC(=S)NNC(=O)c1c(C)nc2sccn12 tested_on=DLD-1 measured_quantity=GI50 result="> 100 µM (inactive)"
molecule="O=[N+]([O-])c1ccc2nc(/C(=N\\Nc3ccccc3)C(O)c3ccc4c(c3)OCO4)c(O)nc2c1 (stereo not given)" tested_on=DLD-1 measured_quantity=GI50 result="> 100 µM (inactive)"

Next:
Short answer please: GI50, DLD-1, entry Cc1cnc2c(c1)C(=O)C1=C(OC(C)(C)CC1O)C2=O (stereo not given)
16 µM (inactive)
